Measurement target: Integrin alpha-IIb/beta-3 (Homo sapiens, UniProt P05106+P08514)
Sequence (P05106 27-788 limits assumed): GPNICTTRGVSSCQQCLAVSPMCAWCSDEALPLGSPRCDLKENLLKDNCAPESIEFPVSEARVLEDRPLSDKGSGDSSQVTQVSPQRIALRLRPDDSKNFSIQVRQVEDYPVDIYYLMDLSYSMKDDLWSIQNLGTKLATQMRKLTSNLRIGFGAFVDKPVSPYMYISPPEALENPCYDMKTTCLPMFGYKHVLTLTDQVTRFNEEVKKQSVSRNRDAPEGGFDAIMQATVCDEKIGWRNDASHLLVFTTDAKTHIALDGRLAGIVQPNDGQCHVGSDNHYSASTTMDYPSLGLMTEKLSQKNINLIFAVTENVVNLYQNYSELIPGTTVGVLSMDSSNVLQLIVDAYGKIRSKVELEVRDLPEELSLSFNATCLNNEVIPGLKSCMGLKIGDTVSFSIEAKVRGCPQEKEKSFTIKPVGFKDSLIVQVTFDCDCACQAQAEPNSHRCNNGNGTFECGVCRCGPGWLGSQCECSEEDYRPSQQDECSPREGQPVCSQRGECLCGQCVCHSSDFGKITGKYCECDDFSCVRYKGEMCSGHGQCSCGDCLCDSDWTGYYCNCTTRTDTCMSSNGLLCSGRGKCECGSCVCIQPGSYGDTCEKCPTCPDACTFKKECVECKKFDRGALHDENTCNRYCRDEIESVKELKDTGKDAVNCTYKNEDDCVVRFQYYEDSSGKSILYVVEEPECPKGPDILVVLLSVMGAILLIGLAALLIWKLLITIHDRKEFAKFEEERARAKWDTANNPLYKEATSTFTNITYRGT
Sequence (P08514 32-887 limits assumed): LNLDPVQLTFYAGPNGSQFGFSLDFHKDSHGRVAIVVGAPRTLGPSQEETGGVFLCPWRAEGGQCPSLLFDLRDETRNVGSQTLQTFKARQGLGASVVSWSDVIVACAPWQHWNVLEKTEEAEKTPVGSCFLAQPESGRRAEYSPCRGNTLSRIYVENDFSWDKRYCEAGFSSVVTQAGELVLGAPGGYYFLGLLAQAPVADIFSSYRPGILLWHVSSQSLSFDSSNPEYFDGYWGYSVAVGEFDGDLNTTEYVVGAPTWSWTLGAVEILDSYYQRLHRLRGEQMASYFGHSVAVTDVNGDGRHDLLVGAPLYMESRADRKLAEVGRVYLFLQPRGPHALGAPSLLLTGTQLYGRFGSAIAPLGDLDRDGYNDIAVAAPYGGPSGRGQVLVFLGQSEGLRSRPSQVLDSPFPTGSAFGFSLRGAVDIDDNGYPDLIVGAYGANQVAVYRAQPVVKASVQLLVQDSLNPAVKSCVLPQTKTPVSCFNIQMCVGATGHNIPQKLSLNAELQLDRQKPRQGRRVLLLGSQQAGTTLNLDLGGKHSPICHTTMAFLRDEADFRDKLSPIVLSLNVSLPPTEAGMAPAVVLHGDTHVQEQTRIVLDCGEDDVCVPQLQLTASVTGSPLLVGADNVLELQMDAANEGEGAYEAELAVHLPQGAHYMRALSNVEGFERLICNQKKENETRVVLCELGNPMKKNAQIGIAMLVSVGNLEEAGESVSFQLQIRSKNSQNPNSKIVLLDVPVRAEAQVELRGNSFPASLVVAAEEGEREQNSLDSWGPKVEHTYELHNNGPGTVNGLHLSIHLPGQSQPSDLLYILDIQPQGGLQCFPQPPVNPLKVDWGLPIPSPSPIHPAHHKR
Sequence (P08514 891-1039 limits assumed): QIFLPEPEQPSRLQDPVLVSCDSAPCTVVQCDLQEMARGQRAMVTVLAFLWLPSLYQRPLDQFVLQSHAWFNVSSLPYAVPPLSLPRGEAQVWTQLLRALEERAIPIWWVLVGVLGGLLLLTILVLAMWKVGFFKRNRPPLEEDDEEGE
Measurement description: Inhibition of 125 I-Fibrinogen binding to Fibrinogen receptor
Format: protein-complex assay
Experimental readout: IC50 (nM)
Kindly provide the numeric value in nM only, without the unit symbol.

**Q:** Write down the reported IC50 (system: Integrin alpha-IIb/beta-3 (Homo sapiens, UniProt P05106+P08514)) of "N=C(N)NCCCCCCCC(=O)N[C@@H](CC(=O)O)C(=O)N[C@@H](Cc1ccccc1)C1N=NN=N1"
**A:** 2000
